This listing pairs binders with measured kon.
target: recombinant murine VEGF164 (mouse) (UniProt Q00731); experiment: Biacore SPR, VEGF immobilized, pH 5
Respond numerically; units are M⁻¹ s⁻¹ and should not be typed.

BINDER	ENDPOINT UNIT	REPORTED
578minmax FW1.4_DHP (scFv, tied by name only) scFv: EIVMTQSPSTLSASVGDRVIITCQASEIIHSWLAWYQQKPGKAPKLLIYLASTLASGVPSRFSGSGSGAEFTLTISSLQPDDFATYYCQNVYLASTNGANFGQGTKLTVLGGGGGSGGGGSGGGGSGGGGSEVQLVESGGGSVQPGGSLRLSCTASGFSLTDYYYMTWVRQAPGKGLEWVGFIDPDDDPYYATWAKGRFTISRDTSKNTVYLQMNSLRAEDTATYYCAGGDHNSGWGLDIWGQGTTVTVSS	M⁻¹ s⁻¹	1.1e+06

Now take the following binder into account.
Memo: 509-max (scFv, VL and VH tied by name; also called Protein Nr; 855) scFv: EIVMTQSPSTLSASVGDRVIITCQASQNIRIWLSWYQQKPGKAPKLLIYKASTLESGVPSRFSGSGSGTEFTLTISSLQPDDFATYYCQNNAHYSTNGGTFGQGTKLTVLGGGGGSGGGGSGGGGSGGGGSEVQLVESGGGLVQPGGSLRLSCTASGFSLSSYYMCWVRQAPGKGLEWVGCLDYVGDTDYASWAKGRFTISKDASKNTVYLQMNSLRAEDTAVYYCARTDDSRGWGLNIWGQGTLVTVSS , reported kon: 4.09e+06
